Test Details: Thermal stability test: open dish in thermostatted oven, decomposition products (DKP, AP) by hplc
Format: physicochemical
Measurement Conditions: 70 hours, 70° C.
Peptide text beside a SMILES is read from it.

Compound	Display Unit	Increase in DKP content
CC1=CC(=O)NS(=O)(=O)O1.COC(=O)[C@H](Cc1ccccc1)NC(=O)[C@@H](N)CC(=O)O [exp. 4c., 1:1 salt of APM and acesulfamic acid] (H-Asp-Phe-OMe)	wt. %	0
COC(=O)[C@H](Cc1ccccc1)NC(=O)[C@@H](N)CC(=O)O [APM powder] (H-Asp-Phe-OMe)	wt. %	0.20
COC(=O)[C@H](Cc1ccccc1)NC(=O)[C@@H](N)CC(=O)O.O=C1NS(=O)(=O)c2ccccc21 [exp. 1a., 1:1 salt of APM and SacH] (H-Asp-Phe-OMe)	wt. %	0
COC(=O)[C@H](Cc1ccccc1)NC(=O)[C@@H](N)CC(=O)O.O=C1NS(=O)(=O)c2ccccc21 [comp. exp. 1B, 1:1 salt of APM and SacH] (H-Asp-Phe-OMe)	wt. %	0

----------
Test Details: Moisture content, Karl-Fischer water determination
Format: physicochemical
Measurement Conditions: dried product
Counter-ions that a name gives are not always drawn. Peptide text beside a SMILES is read from it.
Measured moisture content values are reported for all entries that follow.

Compound	Display Unit	moisture content
CC1=CC(=O)NS(=O)(=O)O1.COC(=O)[C@H](Cc1ccccc1)NC(=O)[C@@H](N)CC(=O)O [Exp. 5a., 1:1 salt of APM and acesulfamic acid] (H-Asp-Phe-OMe)	%	0.09
CC1=CC(=O)NS(=O)(=O)O1.COC(=O)[C@H](Cc1ccccc1)NC(=O)[C@@H](N)CC(=O)O [exp. 4a., 1:1 salt of APM and acesulfamic acid] (H-Asp-Phe-OMe)	%	0.12
CC1=CC(=O)NS(=O)(=O)O1.COC(=O)[C@H](Cc1ccccc1)NC(=O)[C@@H](N)CC(=O)O [Exp. 2k, 1:1 salt of APM and acesulfamic acid] (H-Asp-Phe-OMe)	%	0.10
COC(=O)C(Cc1ccccc1)NC(=O)C(N)CC(=O)O.O=C1NS(=O)(=O)c2ccccc21 (stereo not drawn) [Exp. 3b, 1:1 salt of APM and saccharinate] (H-Asp-Phe-OMe; configuration not given here)	%	0.27
CC1=CC(=O)NS(=O)(=O)O1.COC(=O)[C@H](Cc1ccccc1)NC(=O)[C@@H](N)CC(=O)O [exp. 4c., 1:1 salt of APM and acesulfamic acid] (H-Asp-Phe-OMe)	%	0.04
COC(=O)[C@H](Cc1ccccc1)NC(=O)[C@@H](N)CC(=O)O.O=C1NS(=O)(=O)c2ccccc21 [exp. 1a., 1:1 salt of APM and SacH] (H-Asp-Phe-OMe)	%	0.03
CC1=CC(=O)NS(=O)(=O)O1.COC(=O)[C@H](Cc1ccccc1)NC(=O)[C@@H](N)CC(=O)O [comp. exp. 1C, 1:1 salt of APM and acesulfamic acid] (H-Asp-Phe-OMe)	%	0.76
COC(=O)[C@H](Cc1ccccc1)NC(=O)[C@@H](N)CC(=O)O [exp. 1b., 1:1 salt of APM and CycH] (H-Asp-Phe-OMe)	%	0.16
CC1=CC(=O)NS(=O)(=O)O1.COC(=O)[C@H](Cc1ccccc1)NC(=O)[C@@H](N)CC(=O)O [Exp. 3a, 1:1 salt of APM and acesulfamic acid] (H-Asp-Phe-OMe)	%	2.5
CC1=CC(=O)NS(=O)(=O)O1.COC(=O)[C@H](Cc1ccccc1)NC(=O)[C@@H](N)CC(=O)O [exp. 2a., 1:1 salt of APM and acesulfamic acid] (H-Asp-Phe-OMe)	%	0.11

----------
Test Details: Thermal stability test: open dish in thermostatted oven, decomposition products (DKP, AP) by hplc
Type: physicochemical
Measurement Conditions: initial content, relative to dry product
Procedure: d. […] A number of the products obtained in the above-mentioned experiments and comparative experiments were subjected to further analysis of characterization. The following values were determined: (a) thermal stability (at 70° C. and/or at 120° C.) and (b) dissolution rate. […]
Counter-ions that a name gives are not always drawn. Peptide text beside a SMILES is read from it.
Metric: DKP content (wt. %)

Molecule	Numeric Result
CC1=CC(=O)NS(=O)(=O)O1.COC(=O)[C@H](Cc1ccccc1)NC(=O)[C@@H](N)CC(=O)O [exp. 4c., 1:1 salt of APM and acesulfamic acid] (H-Asp-Phe-OMe)	0.01
CC1=CC(=O)NS(=O)(=O)O1.COC(=O)[C@H](Cc1ccccc1)NC(=O)[C@@H](N)CC(=O)O [exp. 2a., 1:1 salt of APM and acesulfamic acid] (H-Asp-Phe-OMe)	0.01
COC(=O)[C@H](Cc1ccccc1)NC(=O)[C@@H](N)CC(=O)O [APM powder] (H-Asp-Phe-OMe)	0.04
CC1=CC(=O)NS(=O)(=O)O1.COC(=O)[C@H](Cc1ccccc1)NC(=O)[C@@H](N)CC(=O)O [comp. exp. 1C, 1:1 salt of APM and acesulfamic acid] (H-Asp-Phe-OMe)	0.35
COC(=O)[C@H](Cc1ccccc1)NC(=O)[C@@H](N)CC(=O)O.O=C1NS(=O)(=O)c2ccccc21 [comp. exp. 1A, 1:1 salt of APM and SacH] (H-Asp-Phe-OMe)	0.53
CC1=CC(=O)NS(=O)(=O)O1.COC(=O)[C@H](Cc1ccccc1)NC(=O)[C@@H](N)CC(=O)O [exp. 4a., 1:1 salt of APM and acesulfamic acid] (H-Asp-Phe-OMe)	0.01
COC(=O)[C@H](Cc1ccccc1)NC(=O)[C@@H](N)CC(=O)O [APM granulate, reference compound] (H-Asp-Phe-OMe)	0.18
COC(=O)[C@H](Cc1ccccc1)NC(=O)[C@@H](N)CC(=O)O.O=C1NS(=O)(=O)c2ccccc21 [comp. exp. 1B, 1:1 salt of APM and SacH] (H-Asp-Phe-OMe)	0.21
COC(=O)[C@H](Cc1ccccc1)NC(=O)[C@@H](N)CC(=O)O.O=C1NS(=O)(=O)c2ccccc21 [exp. 1a., 1:1 salt of APM and SacH] (H-Asp-Phe-OMe)	0.01
CC1=CC(=O)NS(=O)(=O)O1.COC(=O)[C@H](Cc1ccccc1)NC(=O)[C@@H](N)CC(=O)O [comp. exp. 1D, 1:1 salt of APM and acesulfamic acid] (H-Asp-Phe-OMe)	0.32
COC(=O)[C@H](Cc1ccccc1)NC(=O)[C@@H](N)CC(=O)O [exp. 1b., 1:1 salt of APM and CycH] (H-Asp-Phe-OMe)	0.18

----------
Test Details: Thermal stability test: open dish in thermostatted oven, decomposition products (DKP, AP) by hplc
Type: physicochemical
Measurement Conditions: 1 hour, 120° C.
Description: d. […] A number of the products obtained in the above-mentioned experiments and comparative experiments were subjected to further analysis of characterization. The following values were determined: (a) thermal stability (at 70° C. and/or at 120° C.) and (b) dissolution rate. […]
Structures can show the parent of a compound that is named as a salt. Peptide text beside a SMILES is read from it.

Compound	Increase in DKP content (wt. %)
COC(=O)[C@H](Cc1ccccc1)NC(=O)[C@@H](N)CC(=O)O [exp. 1b., 1:1 salt of APM and CycH] (H-Asp-Phe-OMe)	0.14
COC(=O)[C@H](Cc1ccccc1)NC(=O)[C@@H](N)CC(=O)O [APM powder] (H-Asp-Phe-OMe)	2.34
CC1=CC(=O)NS(=O)(=O)O1.COC(=O)[C@H](Cc1ccccc1)NC(=O)[C@@H](N)CC(=O)O [comp. exp. 1D, 1:1 salt of APM and acesulfamic acid] (H-Asp-Phe-OMe)	2.18

----------
Measured moisture content values are reported for all entries that follow.
Test Details: Moisture content, Karl-Fischer water determination
Assay type: physicochemical
Measurement Conditions: dried product
Peptide text beside a SMILES is read from it.
Metric: moisture content (%)

Molecule	Metric	Display Unit	Numeric Result
CC1=CC(=O)NS(=O)(=O)O1.COC(=O)[C@H](Cc1ccccc1)NC(=O)[C@@H](N)CC(=O)O [Exp. 2l, 1:1 salt of APM and acesulfamic acid] (H-Asp-Phe-OMe)	moisture content	%	0.07
CC1=CC(=O)NS(=O)(=O)O1.COC(=O)[C@H](Cc1ccccc1)NC(=O)[C@@H](N)CC(=O)O [comp. exp. 1D, 1:1 salt of APM and acesulfamic acid] (H-Asp-Phe-OMe)	moisture content	%	0.89
CC1=CC(=O)NS(=O)(=O)O1.COC(=O)[C@H](Cc1ccccc1)NC(=O)[C@@H](N)CC(=O)O [Experiment 6, 1:1 salt of APM and acesulfamic acid] (H-Asp-Phe-OMe)	moisture content	%	0.15

----------
Test Details: Thermal stability test: open dish in thermostatted oven, decomposition products (DKP, AP) by hplc
Format: physicochemical
Measurement Conditions: 1 hour, 120° C.
Peptide text beside a SMILES is read from it.
Metric: Increase in DKP content (wt. %)

Molecule	Numeric Result
COC(=O)[C@H](Cc1ccccc1)NC(=O)[C@@H](N)CC(=O)O.O=C1NS(=O)(=O)c2ccccc21 [exp. 1a., 1:1 salt of APM and SacH] (H-Asp-Phe-OMe)	0
CC1=CC(=O)NS(=O)(=O)O1.COC(=O)[C@H](Cc1ccccc1)NC(=O)[C@@H](N)CC(=O)O [exp. 4a., 1:1 salt of APM and acesulfamic acid] (H-Asp-Phe-OMe)	0
CC1=CC(=O)NS(=O)(=O)O1.COC(=O)[C@H](Cc1ccccc1)NC(=O)[C@@H](N)CC(=O)O [exp. 2a., 1:1 salt of APM and acesulfamic acid] (H-Asp-Phe-OMe)	0
COC(=O)[C@H](Cc1ccccc1)NC(=O)[C@@H](N)CC(=O)O [APM granulate, reference compound] (H-Asp-Phe-OMe)	2.09
CC1=CC(=O)NS(=O)(=O)O1.COC(=O)[C@H](Cc1ccccc1)NC(=O)[C@@H](N)CC(=O)O [exp. 4c., 1:1 salt of APM and acesulfamic acid] (H-Asp-Phe-OMe)	0
CC1=CC(=O)NS(=O)(=O)O1.COC(=O)[C@H](Cc1ccccc1)NC(=O)[C@@H](N)CC(=O)O [comp. exp. 1C, 1:1 salt of APM and acesulfamic acid] (H-Asp-Phe-OMe)	2.04
